- measurement-target: T1, NOD mouse SIRP-α D1 domain (mouse (NOD strain))
- T1 chain: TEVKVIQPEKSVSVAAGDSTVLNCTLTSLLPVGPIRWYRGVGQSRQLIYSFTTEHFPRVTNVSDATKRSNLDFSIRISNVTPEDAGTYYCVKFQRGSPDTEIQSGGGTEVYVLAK
- measurement-notes: SPR, ProteOn, antibody on chip
Hi! Just check whether Kd is below 1 nM. Below gives Criterion met, equal or above gives Criterion not met.

binder	class-assignment
AB3c (antibody, mouse IgG2a, V domains shown, Full-length mouse IgG2a) VH: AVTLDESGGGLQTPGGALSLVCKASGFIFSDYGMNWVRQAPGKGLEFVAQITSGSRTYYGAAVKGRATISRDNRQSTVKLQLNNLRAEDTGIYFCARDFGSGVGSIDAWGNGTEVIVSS VL: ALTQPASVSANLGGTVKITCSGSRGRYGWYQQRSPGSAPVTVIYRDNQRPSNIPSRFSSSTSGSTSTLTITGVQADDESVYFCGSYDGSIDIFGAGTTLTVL	Criterion not met
AB25c (antibody, mouse IgG2a, V domains shown, Full-length mouse IgG2a) VH: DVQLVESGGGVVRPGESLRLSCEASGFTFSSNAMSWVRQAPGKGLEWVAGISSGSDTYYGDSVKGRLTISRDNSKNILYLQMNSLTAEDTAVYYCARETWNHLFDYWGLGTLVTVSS VL: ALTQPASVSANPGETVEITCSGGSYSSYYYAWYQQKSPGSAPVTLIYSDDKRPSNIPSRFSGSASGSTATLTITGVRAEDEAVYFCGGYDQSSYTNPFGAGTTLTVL	Criterion not met
AB27c (antibody, mouse IgG2a, V domains shown, Full-length mouse IgG2a) VH: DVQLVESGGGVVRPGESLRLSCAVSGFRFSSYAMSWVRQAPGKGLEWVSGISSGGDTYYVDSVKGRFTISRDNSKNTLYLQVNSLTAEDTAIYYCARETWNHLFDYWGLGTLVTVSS VL: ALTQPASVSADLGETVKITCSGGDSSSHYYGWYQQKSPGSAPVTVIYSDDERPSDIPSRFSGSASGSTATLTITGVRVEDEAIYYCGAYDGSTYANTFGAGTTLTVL	Criterion not met
AB21c (antibody, mouse IgG2a, V domains shown, Full-length mouse IgG2a) VH: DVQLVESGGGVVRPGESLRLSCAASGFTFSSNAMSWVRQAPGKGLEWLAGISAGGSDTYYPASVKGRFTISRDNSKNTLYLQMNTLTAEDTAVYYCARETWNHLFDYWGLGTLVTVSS VL: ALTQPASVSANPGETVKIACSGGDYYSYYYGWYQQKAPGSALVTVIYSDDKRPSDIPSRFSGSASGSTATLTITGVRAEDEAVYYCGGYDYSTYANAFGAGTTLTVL	Criterion met

Task: Say whether its Kd is strictly beneath 1 nM. Entry: AB66c (antibody, mouse IgG2a, V domains shown, Full-length mouse IgG2a) VH: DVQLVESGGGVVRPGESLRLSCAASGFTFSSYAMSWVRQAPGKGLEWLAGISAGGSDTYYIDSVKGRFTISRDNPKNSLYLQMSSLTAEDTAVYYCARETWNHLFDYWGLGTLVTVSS VL: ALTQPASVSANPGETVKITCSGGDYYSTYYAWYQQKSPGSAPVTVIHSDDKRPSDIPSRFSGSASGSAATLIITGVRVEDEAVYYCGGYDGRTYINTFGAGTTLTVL
Output: Criterion met
